- TARGET_OF_ASSAY: PI3K-α (Homo sapiens, UniProt P42336)
- Sequence (P42336 whole entry, species assumed): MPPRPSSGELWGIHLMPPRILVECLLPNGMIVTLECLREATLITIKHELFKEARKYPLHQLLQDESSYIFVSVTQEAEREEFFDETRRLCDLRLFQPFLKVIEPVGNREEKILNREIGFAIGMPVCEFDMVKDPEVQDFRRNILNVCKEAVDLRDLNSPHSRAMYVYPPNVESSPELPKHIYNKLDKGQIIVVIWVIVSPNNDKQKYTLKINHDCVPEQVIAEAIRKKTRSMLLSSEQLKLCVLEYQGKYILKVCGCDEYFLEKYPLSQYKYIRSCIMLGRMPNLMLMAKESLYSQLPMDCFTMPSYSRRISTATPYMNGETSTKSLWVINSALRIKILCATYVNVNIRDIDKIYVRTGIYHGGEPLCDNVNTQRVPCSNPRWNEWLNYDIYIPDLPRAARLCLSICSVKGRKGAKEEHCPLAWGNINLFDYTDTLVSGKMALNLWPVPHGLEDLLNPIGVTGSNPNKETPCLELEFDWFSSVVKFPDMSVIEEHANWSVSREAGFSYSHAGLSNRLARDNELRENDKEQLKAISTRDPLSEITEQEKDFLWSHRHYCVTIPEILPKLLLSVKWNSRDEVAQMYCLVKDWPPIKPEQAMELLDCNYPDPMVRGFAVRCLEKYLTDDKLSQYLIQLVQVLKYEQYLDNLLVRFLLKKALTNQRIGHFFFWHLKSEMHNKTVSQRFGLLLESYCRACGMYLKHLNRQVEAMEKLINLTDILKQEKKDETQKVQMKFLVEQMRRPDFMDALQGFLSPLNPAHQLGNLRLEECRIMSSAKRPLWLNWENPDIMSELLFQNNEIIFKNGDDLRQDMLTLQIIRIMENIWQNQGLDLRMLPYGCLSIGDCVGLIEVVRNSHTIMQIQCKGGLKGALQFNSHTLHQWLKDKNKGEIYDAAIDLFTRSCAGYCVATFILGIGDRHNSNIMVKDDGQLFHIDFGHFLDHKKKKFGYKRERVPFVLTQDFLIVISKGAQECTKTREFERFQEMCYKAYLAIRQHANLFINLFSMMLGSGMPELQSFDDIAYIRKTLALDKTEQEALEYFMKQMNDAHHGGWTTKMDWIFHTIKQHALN
- Sequence (P27986 whole entry partner, species assumed): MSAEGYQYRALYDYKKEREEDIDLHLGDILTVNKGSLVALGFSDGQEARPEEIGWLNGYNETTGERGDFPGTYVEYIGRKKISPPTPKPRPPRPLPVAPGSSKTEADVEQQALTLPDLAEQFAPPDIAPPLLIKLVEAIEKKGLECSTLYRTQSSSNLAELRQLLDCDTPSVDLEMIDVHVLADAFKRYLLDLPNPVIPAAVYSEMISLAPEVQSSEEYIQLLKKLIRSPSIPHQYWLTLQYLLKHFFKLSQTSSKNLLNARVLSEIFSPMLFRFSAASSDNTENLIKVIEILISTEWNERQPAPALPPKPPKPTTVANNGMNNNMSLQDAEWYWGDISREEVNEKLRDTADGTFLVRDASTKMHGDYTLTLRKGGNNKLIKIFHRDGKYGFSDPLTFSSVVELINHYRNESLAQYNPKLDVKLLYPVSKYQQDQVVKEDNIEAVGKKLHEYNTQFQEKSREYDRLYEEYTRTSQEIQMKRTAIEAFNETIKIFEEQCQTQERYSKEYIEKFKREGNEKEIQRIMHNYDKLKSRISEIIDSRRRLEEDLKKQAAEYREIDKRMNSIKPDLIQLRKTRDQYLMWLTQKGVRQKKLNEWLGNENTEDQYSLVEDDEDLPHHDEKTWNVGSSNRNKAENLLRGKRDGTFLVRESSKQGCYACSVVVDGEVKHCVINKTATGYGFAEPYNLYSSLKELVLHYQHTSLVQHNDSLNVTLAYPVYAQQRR
- TEST_METHOD_NOTES: PI3K-alpha fluorescence polarization assay
- SETTINGS: read-out: IC50 PI3Kα; listed as 719
EXPERIMENTAL_READOUT: IC50 (nM)
Write the answer as a number in nM, unit excluded.

**Q:** Specify IC50 for `CC(=O)c1ccc(NC(=O)Nc2ccc(-c3nc(N4CCOCC4)nc(N4C5CCC4COC5)n3)cc2)cc1` and stop.
**A:** 17.5

----------
- TARGET_OF_ASSAY: human SMG-1 (hSMG-1) (Homo sapiens)
- TEST_METHOD_NOTES: hSMG-1 kinase assay (DELFIA)
EXPERIMENTAL_READOUT: log10 IC50 (log10 of the value in nM)
Short version: log10 scale, IC50, nM.

Worked examples, 2 compounds total:
>>> number("O=C(Cc1ccc(-c2nc(N3CCOCC3)nc(N3CCOCC3)n2)cc1)Nc1cccnc1")
3.97
>>> number("CNC(=O)Nc1ccc(-c2nc(-c3ccc(NC(=O)Nc4ccncc4)cc3)nc(N3CC4CCC(C3)O4)n2)cc1")
0.70

**Q:** Return reported log10 IC50. Input compound: CNC(=O)Nc1ccc(-c2nc(-c3ccc(NC(=O)Nc4cccnc4)cc3)nc(N3C(C)COCC3C)n2)cc1 (centres unmarked)
**A:** 2.71

**Q:** Retrieve log10 IC50 measured for CNC(=O)Nc1ccc(-c2nc(-c3ccc(NC(=O)Nc4ccncc4)cc3)nc(N3C(C)COCC3C)n2)cc1 (centres unmarked) and print it.
**A:** 2.30

**Q:** Give a short answer stating reported log10 IC50 for CNC(=O)Nc1ccc(-c2nc(-c3ccc(NC(=O)Nc4cccc(C(N)=O)c4)cc3)nc(N3C(C)COCC3C)n2)cc1 (centres unmarked) .
**A:** 2.11

----------
- TARGET_OF_ASSAY: PI3K-γ (Homo sapiens)
- TEST_METHOD_NOTES: PI3K-gamma fluorescence polarization assay
- SETTINGS: read-out: IC50 PI3Kγ
List of pIC50 values.
Interpret pIC50 as the negative base-10 log of the concentration measured in mol/L.

>>> number("COCCNC(=O)c1ccc(NC(=O)Nc2ccc(-c3nc(-c4cccs4)nc(N4CCOCC4)n3)cc2)cc1 [Example 561]")
7.23

**Q:** Specify reported pIC50 for the compound shown: O=C(Nc1ccc(C(=O)N2CCS(=O)(=O)CC2)cc1)Nc1ccc(-c2nc(N3CCOCC3)nc(N3C4CCC3COC4)n2)cc1 [Example 822]
**A:** 7.50

**Q:** Tell me pIC50 reported for O=C(Nc1ccc(C(=O)O)cc1)Nc1ccc(-c2nc(N3CCCC3)nc(N3CCOCC3)n2)cc1 [Example 599]
**A:** 6.72

----------
- TARGET_OF_ASSAY: Human mTOR (FLAG-TOR) (Homo sapiens)
- TEST_METHOD_NOTES: mTOR kinase assay (DELFIA format, purified enzyme)
- Type: biochemical
- SETTINGS: IC50 mTOR
pIC50: −log10 of the molar value.
Values of pIC50 greater than or equal to 9 map to YES; values below map to NO.

Answered cases to consult:
>>> label("CC(C)Oc1nc(-c2ccc(NC(=O)Nc3ccc(C(=O)NCCN(C)C)cc3)cc2)nc(N2CCOCC2)n1")
"NO"
>>> label("O=C(Nc1ccc(F)cc1)Nc1ccc(-c2nc(N3CCOCC3)nc(N3C4CCC3COC4)n2)cc1")
"NO"
>>> label("COc1nc(-c2ccc(NC(=O)Nc3ccc(C(=O)N(C)CCN(C)C)cc3)cc2)nc(N2CCOCC2)n1")
"NO"

Switching to the query record.
**Q:** Could you please find out whether `O=C(Nc1ccc(C(=O)NCCN2CCCCC2)cc1)Nc1ccc(-c2nc(O[C@H]3CCOC3)nc(N3CCOCC3)n2)cc1` has pIC50 that meets 9 or exceeds it?
**A:** YES

----------
- TARGET_OF_ASSAY: PI3K-α (Homo sapiens)
- TEST_METHOD_NOTES: PI3K-alpha fluorescence polarization assay
- SETTINGS: read-out: IC50 PI3Kα
pIC50: −log10 of the molar value.
Classify by measured pIC50: class 1 if it is equal to or exceeds 7, class 0 if it is smaller.

Example entries and their recorded answers appear below.
>>> label("O=C(Nc1ccc(CO)cc1)Nc1ccc(-c2nc(N3CCOCC3)nc(N3C4CCC3COC4)n2)cc1 [Example 38]")
"class 1"
>>> label("CNC1CCN(c2nc(-c3ccc(NC(=O)Nc4ccncc4)cc3)nc(N3CC4CCC(C3)O4)n2)CC1 [Example 118]")
"class 0"
>>> label("C[C@@H]1COCCN1c1nc(-c2ccc(NC(=O)Nc3ccc(N4CCN(C)CC4)nc3)cc2)nc(C2CCOCC2)n1 [Example 433]")
"class 0"
>>> label("O=C(Nc1ccc(C(=O)O)cc1)Nc1ccc(-c2nc(NS(=O)(=O)c3ccccc3)nc(N3CCOCC3)n2)cc1 [Example 790]")
"class 0"
>>> label("CN1CCN(C(=O)c2ccc(NC(=O)Nc3ccc(-c4nc(N5CCCCC5)nc(N5CCOCC5)n4)cc3)cc2)CC1 [Example 597]")
"class 1"
>>> label("O=C(Nc1ccc(CN2CCCC2)cc1)Nc1ccc(-c2nc(N3C4CCC3COC4)nc(N3C4CCC3COC4)n2)cc1 [Example 369]")
"class 0"

Consider the record given below.
**Q:** Reported pIC50 at or above 7? CNC(=O)Nc1ccc(-c2nc(N3CC4CCC(C3)O4)nc(N3CC4CNCC(C3)O4)n2)cc1 [Example 234]
**A:** class 0

----------
- TARGET_OF_ASSAY: PI3K-γ (Homo sapiens, UniProt P48736)
- Sequence (P48736 whole entry, species assumed): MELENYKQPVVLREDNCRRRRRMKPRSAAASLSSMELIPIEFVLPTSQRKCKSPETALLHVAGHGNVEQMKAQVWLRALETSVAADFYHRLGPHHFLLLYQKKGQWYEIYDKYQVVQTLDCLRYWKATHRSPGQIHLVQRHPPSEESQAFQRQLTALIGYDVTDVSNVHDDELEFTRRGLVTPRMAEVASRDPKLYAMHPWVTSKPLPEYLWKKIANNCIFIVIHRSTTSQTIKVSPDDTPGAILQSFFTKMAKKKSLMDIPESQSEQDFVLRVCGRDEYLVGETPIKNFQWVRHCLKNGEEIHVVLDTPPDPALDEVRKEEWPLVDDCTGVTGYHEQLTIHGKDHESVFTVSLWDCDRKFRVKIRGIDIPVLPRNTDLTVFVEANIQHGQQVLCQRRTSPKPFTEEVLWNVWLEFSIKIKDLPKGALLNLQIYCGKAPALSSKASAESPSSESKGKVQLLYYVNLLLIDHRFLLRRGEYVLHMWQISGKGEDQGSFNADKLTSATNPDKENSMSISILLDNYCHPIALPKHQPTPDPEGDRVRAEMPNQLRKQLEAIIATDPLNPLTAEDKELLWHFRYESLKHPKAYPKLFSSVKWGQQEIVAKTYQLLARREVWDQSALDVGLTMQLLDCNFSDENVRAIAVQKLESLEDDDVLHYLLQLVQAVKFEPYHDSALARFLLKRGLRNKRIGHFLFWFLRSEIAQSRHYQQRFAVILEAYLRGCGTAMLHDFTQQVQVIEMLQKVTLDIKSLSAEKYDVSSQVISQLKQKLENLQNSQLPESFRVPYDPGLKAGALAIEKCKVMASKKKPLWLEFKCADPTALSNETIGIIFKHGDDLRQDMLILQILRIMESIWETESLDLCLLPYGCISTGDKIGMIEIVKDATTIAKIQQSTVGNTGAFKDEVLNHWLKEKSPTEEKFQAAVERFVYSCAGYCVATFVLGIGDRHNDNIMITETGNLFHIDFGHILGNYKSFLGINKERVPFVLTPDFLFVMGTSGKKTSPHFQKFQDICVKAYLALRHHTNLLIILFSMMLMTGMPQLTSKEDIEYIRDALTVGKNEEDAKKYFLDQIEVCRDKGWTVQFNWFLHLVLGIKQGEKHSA
- TEST_METHOD_NOTES: PI3K-gamma fluorescence polarization assay
- SETTINGS: read-out: IC50 PI3Kγ; listed as 530
EXPERIMENTAL_READOUT: pIC50
FYI, pIC50 means -log10 of a concentration in mol per litre.

**Q:** # lookup: PI3K-γ (Homo sapiens, UniProt P48736) pIC50, key = Cc1ccc(-c2nc(-c3ccc(NC(=O)Nc4ccncc4)cc3)nc(N3CCOCC3)n2)cc1 [Example 340]
**A:** 6.15

----------
- Tested on: human breast MDA-MB-361 tumor cell line
- TEST_METHOD_NOTES: In vitro cell culture growth assay (MTS), MDA-MB-361
- Type: cell-based
- SETTINGS: Homo sapiens, 72 h; MDA-MB-361 cells, MTS, three days after drug treatment; read-out: IC50 MDA-MB-361
Field: label. Allowed values: Satisfied (IC50 < 10 nM) or Not satisfied (IC50 >= 10 nM).

>>> label("CN(C)CCNC(=O)c1ccc(NC(=O)Nc2ccc(-c3nc(N4CCOCC4)nc(N4C5CCCC4COC5)n3)cc2)cc1 [Example 796]")
"Satisfied"

**Q:** IC50 strictly < 10 nM for this compound? CN(C)CCNC(=O)c1ccc(NC(=O)Nc2ccc(-c3nc(N4CCOCC4)nc(N4CC5CCC4CO5)n3)cc2)cc1 (stereo not drawn) [Example 815]
**A:** Satisfied

**Q:** Does the reported IC50 of CN1CCCC1CCNC(=O)c1ccc(NC(=O)Nc2ccc(-c3nc(N4CCOCC4)nc(N4C5CCCC4COC5)n3)cc2)cc1 (stereo not drawn) [Example 801] stay below 10 nM?
**A:** Satisfied

**Q:** Check if IC50 falls below 10 nM for O=C(Nc1ccc(C(=O)NCCN2CCCCC2)cc1)Nc1ccc(-c2nc(N3CCOCC3)nc(N3C4CCCC3COC4)n2)cc1 [Example 799] .
**A:** Satisfied

----------
Measured IC50 by item
- TARGET_OF_ASSAY: Human mTOR (FLAG-TOR) (Homo sapiens, UniProt P42345)
- Sequence (P42345 1360-2549 limits assumed): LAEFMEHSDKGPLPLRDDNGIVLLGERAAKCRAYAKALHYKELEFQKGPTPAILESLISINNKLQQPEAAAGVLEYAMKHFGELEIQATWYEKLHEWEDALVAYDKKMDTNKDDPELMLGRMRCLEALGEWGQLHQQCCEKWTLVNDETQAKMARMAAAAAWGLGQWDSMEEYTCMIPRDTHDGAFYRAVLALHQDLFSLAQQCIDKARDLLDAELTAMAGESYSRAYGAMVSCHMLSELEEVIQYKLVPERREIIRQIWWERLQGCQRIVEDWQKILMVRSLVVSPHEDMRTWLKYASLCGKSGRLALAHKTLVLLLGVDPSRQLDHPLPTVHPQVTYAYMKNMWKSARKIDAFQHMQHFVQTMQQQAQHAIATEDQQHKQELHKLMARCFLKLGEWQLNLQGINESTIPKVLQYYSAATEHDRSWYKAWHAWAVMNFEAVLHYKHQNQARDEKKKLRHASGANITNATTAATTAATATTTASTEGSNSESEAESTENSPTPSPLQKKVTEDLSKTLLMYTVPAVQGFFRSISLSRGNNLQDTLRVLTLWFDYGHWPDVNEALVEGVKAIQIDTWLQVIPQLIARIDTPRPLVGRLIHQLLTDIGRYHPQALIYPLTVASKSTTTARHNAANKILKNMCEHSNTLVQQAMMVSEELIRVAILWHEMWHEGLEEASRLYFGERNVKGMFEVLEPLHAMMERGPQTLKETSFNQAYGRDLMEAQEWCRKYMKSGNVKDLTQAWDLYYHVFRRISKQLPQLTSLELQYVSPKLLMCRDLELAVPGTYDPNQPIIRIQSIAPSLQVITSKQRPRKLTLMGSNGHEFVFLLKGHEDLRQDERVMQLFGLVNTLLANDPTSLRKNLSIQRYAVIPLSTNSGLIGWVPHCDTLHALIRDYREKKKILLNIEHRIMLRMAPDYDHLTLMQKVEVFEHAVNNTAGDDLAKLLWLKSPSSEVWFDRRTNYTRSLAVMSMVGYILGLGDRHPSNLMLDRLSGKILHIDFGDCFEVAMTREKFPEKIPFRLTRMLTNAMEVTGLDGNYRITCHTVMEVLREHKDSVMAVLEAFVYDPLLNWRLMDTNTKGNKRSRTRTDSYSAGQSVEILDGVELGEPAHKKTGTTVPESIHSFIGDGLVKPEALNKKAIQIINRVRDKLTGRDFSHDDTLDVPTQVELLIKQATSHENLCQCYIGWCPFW
- TEST_METHOD_NOTES: mTOR kinase assay (DELFIA format, purified enzyme)
- Format: biochemical
- SETTINGS: read-out: IC50 mTOR
Answer in nM, number only, no unit symbol.

>>> number("CCOC(=O)N1CCC(Oc2nc(-c3ccc(NC(=O)Nc4ccncc4)cc3)nc(N3CCOCC3)n2)CC1 [Example 689]")
39

**Q:** Annotate the compound C[C@H](CO)Nc1nc(-c2ccc(NC(=O)Nc3cccnc3)cc2)nc(N2CC3CCC(C2)O3)n1 [Example 260] with its measured IC50.
**A:** 0.9

**Q:** Return IC50 (reported value) for this compound: COC(=O)c1cccc(NC(=O)Nc2ccc(-c3nc(-c4cccs4)nc(N4CCOCC4)n3)cc2)c1 [Example 582]
**A:** 230

**Q:** Identify the reported IC50 for the following entry. CNC1CCN(c2nc(-c3ccc(NC(=O)Nc4ccncc4)cc3)nc(N3CC4CCC(C3)O4)n2)CC1 [Example 118]
**A:** 195

----------
- TARGET_OF_ASSAY: PI3K-α (Homo sapiens)
- TEST_METHOD_NOTES: PI3K-alpha fluorescence polarization assay
- SETTINGS: read-out: IC50 PI3Kα
EXPERIMENTAL_READOUT: pIC50
Scale explanation: pIC50 corresponds to minus log10 of a concentration expressed in moles per litre.

Sample records with pIC50:
>>> number("O=C(Nc1ccccc1)Nc1ccc(-c2nc(Nc3ccc(N4CCNCC4)cc3)nc(N3CC4CCC(C3)O4)n2)cc1")
7.38
>>> number("C[C@@H]1COCCN1c1nc(-c2ccc(NC(=O)Nc3ccc(CN4CCCC4)cc3)cc2)nc(N2C3CCC2COC3)n1")
6.28
>>> number("CN1CCN(C(=O)c2ccc(NC(=O)Nc3ccc(-c4nc(C5=CCOCC5)nc(N5CCOCC5)n4)cc3)cc2)CC1")
8.70

Let us move to another entry and its pIC50.
**Q:** Retrieve pIC50 measured for `CN1CC2CN(c3nc(-c4ccc(NC(=O)Nc5ccncc5)cc4)nc(N4CCOCC4)n3)CC(C1)O2` and print it.
**A:** 6.43
